Values compiled from patent US20260273072A1.

Test system: NCI-H69 cell line
Experiment: Cell viability assay for NCI-H69 cell line (EZ-Cytox)
Type: cell-based
Conditions: Homo sapiens, NCI-H69, 120 h; H69 cells, 5 days, 3000 nM to 0.46 nM
Protocol: 3. Cell Viability Assay for NCI-H69, NCI-H526 Cell Lines (1) Culture of NCI-H69, NCI-H526 Cell Lines The NCI-H69 (hereafter H69) and NCI-H526 (hereafter H526) cell lines were purchased from KCLB. (2) Treatment of Compounds of the Present Invention and Method of Cell Viability Assay After treating the compound to each well to make the total volume of 200 μl, it was cultured in a CO2 incubator (Thermo Fisher Scientific) for 5 days. […]
# IC50 listing for each entry below
Assay Endpoint: IC50

>  <Compound>
COc1cc(C(=O)NN2CCC(CCN3CCN(c4ccc(N(C)C5CCC(=O)NC5=O)cc4F)CC3)CC2)ccc1Nc1ncc2c(n1)N(C(C)C)CC(F)(F)C(=O)N2C (stereo not drawn)

>  <Assay Endpoint>
IC50

>  <Experimental Result>
< 30 nM

$$$$
>  <Compound>
COc1cc(C(=O)NN2CCC(CCN3CCN(c4cc(C#N)c(NC5CCC(=O)NC5=O)cc4F)CC3)CC2)ccc1Nc1ncc2c(n1)N(C1CCCC1)CC(F)(F)C(=O)N2C (stereo not drawn)

>  <Assay Endpoint>
IC50

>  <Experimental Result>
< 30 nM

$$$$
>  <Compound>
COc1cc(C(=O)NC2CC3(CCN(CC4CCN(c5ccc(C6CCC(=O)NC6=O)cc5F)CC4)CC3)C2)ccc1Nc1ncc2c(n1)N(C)CC(F)(F)C(=O)N2C (stereo not drawn)

>  <Assay Endpoint>
IC50

>  <Experimental Result>
< 100 nM

$$$$
